system: mut-mt (RNA, rRNA) GGCGUCACCCUCCUC/GAGGAGGCAAGUCGCC; assay: fluorescence titration; conditions: 150 mM NaCl, 3 mM Na2EDTA; apparent; 10 mM HEPES pH 7.4; 1 μM RNA
Please go through the items and note down their Kd.
Express your answer in µM, writing the number without its unit.

Request the reported Kd associated with CCC[C@H]1[C@H](O)[C@@H](N)[C@@H](O[C@H]2[C@H](O[C@@H]3O[C@H](CO)[C@@H](O[C@H]4O[C@@H](CN)[C@@H](O)[C@H](O)[C@H]4N)[C@H]3O)[C@@H](O)[C@H](N)C[C@@H]2N)O[C@@H]1CO
5.8

Check NC[C@@H]1O[C@H](O[C@H]2[C@@H](O)[C@H](O[C@@H]3[C@@H](O)[C@H](N)C[C@H](N)[C@H]3O[C@H]3O[C@H](CN)[C@@H](O)[C@H](O)[C@H]3N)O[C@@H]2CO)[C@H](N)[C@@H](O)[C@@H]1O too.
0.1

Next molecule up: NC[C@@H]1O[C@H](O[C@H]2[C@@H](O)[C@H](O[C@@H]3[C@@H](O)[C@H](N)C[C@H](N)[C@H]3O[C@H]3O[C@H](CO)[C@@H](O)[C@H](O)[C@H]3N)O[C@@H]2CO)[C@H](N)[C@@H](O)[C@@H]1O
2.8

Do the same for CCO[C@H]1[C@H](O)[C@@H](N)[C@@H](O[C@H]2[C@H](O[C@@H]3O[C@H](CO)[C@@H](O[C@H]4O[C@@H](CN)[C@@H](O)[C@H](O)[C@H]4N)[C@H]3O)[C@@H](O)[C@H](N)C[C@@H]2N)O[C@@H]1CO please
8.6

---

test system: wt-mt (RNA, rRNA) GGCGUCACCCUCCUC/GAGGAGACAAGUCGCC; assay: fluorescence titration; conditions: 150 mM NaCl, 3 mM Na2EDTA; apparent; 10 mM HEPES pH 7.4; 1 μM RNA
Could you please report measured Kd for the items listed next?
Provide only the numeric value, understood in µM.

Using the record for NC[C@@H]1O[C@H](O[C@H]2[C@@H](O)[C@H](O[C@@H]3[C@@H](O)[C@H](N)C[C@H](N)[C@H]3O[C@H]3O[C@H](CN)[C@@H](O)[C@H](O)[C@H]3N)O[C@@H]2CO)[C@H](N)[C@@H](O)[C@@H]1O , report its Kd.
1.1

// query: CCO[C@H]1[C@H](O)[C@@H](N)[C@@H](O[C@H]2[C@H](O[C@@H]3O[C@H](CO)[C@@H](O[C@H]4O[C@@H](CN)[C@@H](O)[C@H](O)[C@H]4N)[C@H]3O)[C@@H](O)[C@H](N)C[C@@H]2N)O[C@@H]1CO
12.8

Same lookup for CCC[C@H]1[C@H](O)[C@@H](N)[C@@H](O[C@H]2[C@H](O[C@@H]3O[C@H](CO)[C@@H](O[C@H]4O[C@@H](CN)[C@@H](O)[C@H](O)[C@H]4N)[C@H]3O)[C@@H](O)[C@H](N)C[C@@H]2N)O[C@@H]1CO , please.
26.9

Now consider NC[C@@H]1O[C@H](O[C@H]2[C@@H](O)[C@H](O[C@@H]3[C@@H](O)[C@H](N)C[C@H](N)[C@H]3O[C@H]3O[C@H](CO)[C@@H](O)[C@H](O)[C@H]3N)O[C@@H]2CO)[C@H](N)[C@@H](O)[C@@H]1O and answer again.
6.5
